test: Acute toxicity in mice; assay type: in vivo; settings: mouse, in vivo, po, single administration, read-out: LD50, oral route, mice
Property: LD50; scope: individual compounds
reported.metric: LD50

> print(dat)
                                   compound       result
1  Cn1c(=O)c2c(nc3n2CCN3CCN2CCN(c3ccc(Cl)cc3)CC2)n(C)c1=O    120 mg/kg
2  Cn1c(=O)c2c(nc3n2CCN3CCN2CCN(c3cccc(Cl)c3Cl)CC2)n(C)c1=O  > 300 mg/kg
3  CC(CN1CCCn2c1nc1c2c(=O)n(C)c(=O)n1C)N1CCN(c2cccc(Cl)c2)CC1 (stereo not shown)  > 300 mg/kg
4  COc1ccc(N2CCN(CCN3CCn4c3nc3c4c(=O)n(C)c(=O)n3C)CC2)cc1  > 300 mg/kg

* * *

assay: Acute toxicity in mice; format: in vivo; details: mouse, in vivo, po, single administration, read-out: LD50, oral route, mice
Property: LD50; scope: individual molecules
reported.metric: LD50

> print(dat)
                                   molecule       result
1  CC1CN(CCN2CCn3c2nc2c3c(=O)n(C)c(=O)n2C)CCN1c1ccc(Cl)cc1 (centres unmarked)  > 300 mg/kg
2  Cn1c(=O)c2c(nc3n2CCCN3CCCN2CCN(c3ccc(Cl)cc3)CC2)n(C)c1=O  > 300 mg/kg
3  CCC1CN(CCN2CCn3c2nc2c3c(=O)n(C)c(=O)n2C)CCN1c1cccc(Cl)c1 (centres unmarked)    300 mg/kg
4  Cn1c(=O)c2c(nc3n2CCN3CCN2CCN(c3ccc(F)cc3)CC2)n(C)c1=O  > 300 mg/kg
5  Cn1c(=O)c2c(nc3n2CCN3CCN2CCN(c3cc(Cl)cc(Cl)c3)CC2)n(C)c1=O  > 300 mg/kg
6  CC1CN(CCN2CCn3c2nc2c3c(=O)n(C)c(=O)n2C)CCN1c1cccc(Cl)c1 (centres unmarked)  > 300 mg/kg
7  Cn1c(=O)c2c(nc3n2CCCN3CCN2CCN(c3cccc(Cl)c3)CC2)n(C)c1=O  > 300 mg/kg
8  Cc1ccc(N2CCN(CCN3CCn4c3nc3c4c(=O)n(C)c(=O)n3C)CC2)cc1C  > 300 mg/kg
